Every entry's value here was drawn from the supplement of paper PMC6555819.

For each entry below, report its PBM binding z-score value.
- Test system: PPARg:RXRa IVT, anti-PPARg (NR concentration 270 nM, RXRa partner concentration 90 nM)
- experimental_details: PBM binding z-score (relative to random genomic background probes); higher = stronger binding; sequences stand for … in GC…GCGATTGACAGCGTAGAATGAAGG
Give a plain numeric answer without units written out.

GET /value?item= CCGTGTAGGTTACGAGGGGGCATTCAGTGCGAAT &field=PBM binding z-score returns 4.85

The reported value for CTATGTAGGTTAAGGGGGTCATGCAGTTTGAAAG in terms of PBM binding z-score is 7.75

Input TCTTGTAGATCAAAGCTTAAGAAAGCCGAAGCCT . Output PBM binding z-score: 0.218

Lab note: measured PBM binding z-score of ATATGTAGGTTAGCTGGAGTCATTCAGACTAGGC was 6.03

Just so you know, measured PBM binding z-score for TCTCGGAGGACACGAAAGGTCAGAACTCGACATC came out at 1.22

// recorded PBM binding z-score for CGAACTAGGTGACCAGGACAGTGAAGAGGTTGGA : 7

// TCCAGTAGGTTACGGGGGCATTCAGGGATGAAGA : PBM binding z-score value = 6.84

Per the records, this sequence ( TATACAGGGTCAAAGGGCAGAGTACGAATGTCGA ) has PBM binding z-score equal to 5.52

The sequence listed as TTTCCAAGGTGAAAGGTCGTTGATGCACGCCTTG has a reported PBM binding z-score of 4.72

Lab note: measured PBM binding z-score of TCTAGTTGGTCAAAGGTCAAACACTCGAAATGCG was 6.13

The reported value for CTATGCAGGTTAAGGGGGTCATTCAGTTTGAAAG in terms of PBM binding z-score is 5.58

Query TCGAGTAGGTTACGGGGGCATTCCGGGATGAAGA yields PBM binding z-score of 5.8

---

So I've got a bunch of sequences here, and I need their PBM binding z-score values.
- Tested on: RARb homodimer (NR concentration 270 nM)
- experimental_details: PBM binding z-score (relative to random genomic background probes); higher = stronger binding; sequences stand for … in GC…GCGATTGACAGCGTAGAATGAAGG
Answer as a number with no unit attached.

ATCGGAAGGTCGAGGTGAGTATAGAGAAAGGGAA yielded PBM binding z-score of 2.14

Entry ATCGTAAGGTCGTGAGGTGAGTATACAGAAAGGC — recorded PBM binding z-score = 2.41

Looking up TAGCCTAGGTCATTTGGCCAGTATAGTACGCATC , I see its PBM binding z-score listed as 2.59

Quick note, PBM binding z-score for CTATCTAGGTTAAGGGGGTCATTCAGTTTGAAAG landed at 3.94

Form: sequence = CCGAGTCGGTTACGAGGGGGCATTCAGTGCGAAT ; PBM binding z-score = 1.4

Entry CCTAGCAGGCGAGGGTCACTCAAGCATTTCGCTT , PBM binding z-score reported as 2.36

Item: TCGAGTAGGTTACAGGGGCATTCAGGGATGAAGA | PBM binding z-score: 1.64

Consider CGAACTAGGTAACCAGGACAGTGAAGAGGTTGGA . Its measured PBM binding z-score is 0.378

According to the records, this sequence CGTCCAAGGTCAGCAGGTGAGTGAAAGCGACGTG displays PBM binding z-score of 3.84

// sample TCTCGGAGGACACGAAGGTCAAAGCTTTCCAGAG , its PBM binding z-score was 4.15

// field: PBM binding z-score; key: CCTACTGGGCCAAGGTCATTGCTCAGTCAAAGCA ; value = 3.23

In plain terms, CGGACTAGGTCACCAGGACAGTGAAGAGGTTGGA has a documented PBM binding z-score of 3.18

Note to self: PBM binding z-score recorded for CGAACTAGGTCAAAGGACAGGGAAAGGCGACGTA was 3.14

Per the record, CGTCCGAGGTCAATGCTAGGTCAGTGAAAGCATT has PBM binding z-score of 4.93

Note to self: PBM binding z-score recorded for TCAGATAGGTAAAGGTGAAAGTCGAACGATATGA was 1.76

The sequence listed as ATATGAAGGTTAGGGTCATTCAGAAAGTAGGGAA has a reported PBM binding z-score of 3.58

Reported PBM binding z-score ( CTATGTAGATTAAGGGGGTCATTCAGTTTGAAAG ) = 3.68

Recorded PBM binding z-score (sequence CTCGAAAGGTGGTGCTCAGGTGAGTATACCAAAC ): 0.207

Short answer for CTACGTAGGTTAAGGGGGTCATTCAGTTTGAAAG : PBM binding z-score was 3.61

In plain terms, CAAACTAGGTCACGAGGTCAAAGTCCGCTTCCCG has a documented PBM binding z-score of 5.59

Please fill in: PBM binding z-score reported for CCTACTGGGCCAATGTCATTGATCAGTCAAAGCA = 0.109

For reference, reported PBM binding z-score for CAAACTAGGTCACAGAGGTCAAACTCCGTGCGTA stands at 5.75

// CGAACTAGGTCACCAGGACAGTTAAGAGGTTGGA : PBM binding z-score value = 3.53

Notebook: AAATGTAGGTTAGGGTCATTCAGAAAGTAGGGAA , PBM binding z-score read as 3.49

Noted for CCGATTAGGTTACGAGGGGGCATTCAGTGCGAAT : its PBM binding z-score reads 2.56

PBM binding z-score reading for CGTCTAAGTTCAAGGTAACGTAACAGAAAGCAGC : 2.51

According to the records, this sequence CCTACTGGGCCAAAGGACATTGATTCCAATGCTC displays PBM binding z-score of 0.475

Per the records, this sequence ( CGTCCAAGGTCAATGTTAGGTCAGTGAAAGCATT ) has PBM binding z-score equal to 5.33

GET /value?item= CAAACTAGGTCAAAGGTCAAAGTTGAGCCAACCA &field=PBM binding z-score returns 5.46

PBM binding z-score for CGAGCTAGGTCAAAGGACAGTGAAAGGCGACGTA is 2.82

get_value(item= CGAACTATGTCAAAGGACAGTGAAAGGCGACGTA , readout=PBM binding z-score) returns 1.14

Form: sequence = CGAACTAGGTCAAAGGACTGTGAAAGGCGACGTA ; PBM binding z-score = 2.43

Value of measured PBM binding z-score for the entry TTAACAAGGTGAAAGGTCGTTGATGCACGCCTTG : 2.51

Please fill in: PBM binding z-score reported for AGTCCAAGTTCACTAGGTAACGTAAGATTCAGCT = 1.95

Note to self: PBM binding z-score recorded for CGAACTAGGTAAAAGGACAGTGAAAGGCGACGTA was 1.17

// sample CCTAGTAGGTTATGGGGCATTCAGGCAACGGTGA , its PBM binding z-score was 0.8

Query TCATATAGGTAATCAGGTGAAAGTCCGTAAGTTA yields PBM binding z-score of 0.773

Lab book: PBM binding z-score of CCTACTGGGCCAATAAGGTCATTGATGCCGATAA noted as 3.48

Memo: CCTACTGGGCCAAGGTCATTGAGCAGTCAAAGCA , reported PBM binding z-score: 3.03

Briefly, PBM binding z-score measured for ATCGAAAGGTCGACGAGGTGAGTATGCACCGTTT : 3.07

PBM binding z-score reading for TCTAGGAGGACACGAAGGTCAGAGCTTTCCAGAG : 3.47

Recorded PBM binding z-score (sequence CCGAGTAGGTTACGAGGGGGCATTCTGTGCGAAT ): 2.05

For this sequence ( TCTAGTAGGTTACGGGGGCATTCAGGGATGAAGA ), measured PBM binding z-score is 2.73

Data point: ACCAGCAGGCCAAGGGTCACTCAAGATTAGTCCG ; PBM binding z-score = 3.61

GET /value?item= CCGAGTAGGTTTCGAGGGGGCATTCAGTGCGAAT &field=PBM binding z-score returns 1.58

Recorded PBM binding z-score (sequence TCGAGAAGGTTACGGGGGCATTCAGGGATGAAGA ): 3.05

Entry CGAACTGGGTCACCAGGACAGTGAAGAGGTTGGA ; PBM binding z-score = 2.84

Record summary for CAAACTAGGTCAAGAGGTCAAACTCCGCTTCCCG : reported PBM binding z-score = 5.81

According to the records, this sequence GGAACTAGGGCAAAGTTGATAGCATCTGTCGACG displays PBM binding z-score of 0.866

Record CTATGTAGGTTAAGGGGGTCATTCGGTTTGAAAG , field PBM binding z-score: 3.85

The sequence identified as CCGAGTAAGTTACGAGGGGGCATTCAGTGCGAAT registered its PBM binding z-score at 1.29
